assay: yeast display, Sf9 membrane polyspecificity reagent, FACS + sequencing; frameworks hold sequencing errors
measurementKind: polyreactivity (PSR sort gate)

Recorded results for 8 sequences are shown here.
INSERT INTO results (primarysequence, result) VALUES
  ('QVQLAESGRGLVQAGGSLRLSCADSGIIYYFYAMGWYRQAPGKETEFVAAISGTGGRTYYADSVKGRFTISRDNAKNTVYLQMNSLKPEDTAVYYCNADDTPVPSIRFDYWGQGTQVTVSS', 'low polyreactivity'),
  ('QVQLVESGGGLVQAGGSLRLSCAASGIIFESNAMGWYRQAPGKERELVAAITGRGGRTYYADSVKGRFTISRDNAKNTVYLQTNSLKPEDTAVYYCAADGLRLVPGYKYDYWGQGTQVTVSS', 'high polyreactivity'),
  ('QVQLVESGGGLVQAGGSLRLSCAASGRTFTRYAMGWYRQAPGKERELVAAISWSGTSTHYADSVKGGFTISRDNATNTVYLQMNSLKPEDTAVYYCAARRYPVLKYDYWGQGTQVTVSS', 'high polyreactivity'),
  ('QGQLVESGGGLVQAGGSVRLSCAASRITLGSNAMGWDRQAPGKERELVAAITSGSSTYYADSVKGRFTISRDNAKNTVNLQMNSLKPEDTAVYYCAADPTSYSYEYNYWGQGTQVTVSS', 'low polyreactivity'),
  ('QVQLVESGGGLVQAGGSLRLSCAASGRTFYYYAMGWYRQAPGKERELVAAISKSGGSTYYADSVKGRFTISRDNAKNTVYLQMNSLKPEDTAVYYCAALTTHAPHSYNYWGQGTQVTVSS', 'low polyreactivity'),
  ('QVQLVESGGGLVQAGGSLRLSCAASGSIFSSYAMGWYRQAPGKERELVAAISSSGDSTYADSVKGRFTISRDNAKNTVYLQMISLKPEDTAGYYCAVGGAGSDDYWGQGTQVTVSS', 'low polyreactivity'),
  ('QVQLVESGGGLVQAGVSLPLSCAASGIIFFSYAMGWYRPAPGKERELVAAITSRGTSTYYADSVKGRFTISRDNAKNTVYLQLISLKPEDTAVYYCAARWLWRASKVDYWGQGTQVTLSS', 'high polyreactivity'),
  ('QVQLVESGGGLVEAGGSLRLSCAASGRIFHANAMGWYRQAPGKERELVAGISRHGGRTYYADSVKGRFTMSRDNAKNTVYLQMNSLNPEDTAVYYCNALDWQYKELDYYWGQGTQVTVSS', 'high polyreactivity');

I have 2 sequences here; please give me polyreactivity (PSR sort gate) for each one.
1. QVQLVESGGGLVQAGGSLRLSCAASGITFTSYVMGWYRQAPGKERELVAAISRSGGSSTYYADSVKGRFTISRDNAKNTVYLQMNSLKPEDTAVYYCAADSPYTGGANVYWGQGTQVTVSS
2. QVQRVETGGVLVQAGGSLRLSCAASGRIFINDMGWYRQAHGKEMELVAAIRSDGSTNYADSVKGRFTFSRDTAKNTVYLQMNSLKPEDTAVYYCNVDGYYLFVRGYEYWGQGTQVTVSS

Result:
1. high polyreactivity
2. low polyreactivity

----------
assay: yeast display, Sf9 membrane polyspecificity reagent, FACS + sequencing; frameworks hold sequencing errors
measurementKind: polyreactivity (PSR sort gate)

Recorded results for 4 sequences are shown here.
INSERT INTO measurements (primarysequence, result) VALUES
  ('QVQLVESGGGLVQAGGSLRLSCAASGRTFSVNAMGWYRQAPGKERELVAAISWDGGSTYYADSVKGRFTISRDNAKNTVYLQMNSLKPEDTAVYYCNADYSIPGYYWPYDYWGQGTQVTVSS', 'low polyreactivity'),
  ('QVQLVESGGGLVQAGGSLRLSCAASGFIFGFYAMGWYIQAPGKERELVAAISGGGGRTNYADSVKGRFTISRDYAKNTVYLQMNSLNPEDTAVYYCAATPGRRRYRYYYWGQGTQVTVSS', 'high polyreactivity'),
  ('QVQLVESGGGLVQAGGSLRLSCAASGRTLTGNAMGWYRQAPGKERELVAAISWSAGSTYYADSVKGRFTISRDNAKNTVYLQMNSLKPEDTAVYYCALTLRRNLVRMGYWGLGTQVTVSS', 'high polyreactivity'),
  ('QDQLVESGGGLVQAGGSLRLSCAASGITFRYYAMGWYRQAPGKERELVAAITGGGGSTYADSVKGRFTISRDNAKNTVYLQMNSLKPEDTAVYYCNATPRARSLPLRYQHDYWLQGTQVTVSS', 'low polyreactivity');

# ---- query sequence ----
Query: May I ask what polyreactivity (PSR sort gate) has been recorded for QVQLVESGGGLVQAGGSLRLSCAASGFTFYLYTIGWYRQAPWKERELVATITSDGGTNYADSVKVRFTISRDNAKNTLYLQMNSLKPEDTAVYYCNAASRRGSRKQAKYDYWGQGTQVTVSS ?
Result: low polyreactivity
